assayed.system: GlcNAc(b1-3)[GlcNAc(b1-4)][GlcNAc(b1-6)]GlcNAc
measurement.description: glycan array binding signal (z-score within array); higher = stronger binding
condition.set: glycan notation: IUPAC condensed, linker removed
This is one part of a sample in which the strongest signals are shown more often than they occur.
Assign class by glycan array binding signal (z-score): not lower than 0.2 means MET; lower than 0.2 means NOT MET.

Dectin2 (Homo sapiens), Q6EIG7 (protein) MMQEQQPQSTEKRGWLSLRLWSVAGISIALLSACFIVSCVVTYHFTYGETGKRLSELHSYHSSLTCFSEGTKVPAWGCCPASWKSFGSSCYFISSEEKVWSKSEQNCVEMGAHLVVFNTEAEQNFIVQQLNESFSYFLGLSDPQGNNNWQWIDKTPYEKNVRFWHLGEPNHSAEQCASIVFWKPTGWGWNDVICETRRNSICEMNKIYL    MET

Exercise: Threshold query (glycan array binding signal (z-score) >= 0.2) on SynCAM (Mus musculus) (protein) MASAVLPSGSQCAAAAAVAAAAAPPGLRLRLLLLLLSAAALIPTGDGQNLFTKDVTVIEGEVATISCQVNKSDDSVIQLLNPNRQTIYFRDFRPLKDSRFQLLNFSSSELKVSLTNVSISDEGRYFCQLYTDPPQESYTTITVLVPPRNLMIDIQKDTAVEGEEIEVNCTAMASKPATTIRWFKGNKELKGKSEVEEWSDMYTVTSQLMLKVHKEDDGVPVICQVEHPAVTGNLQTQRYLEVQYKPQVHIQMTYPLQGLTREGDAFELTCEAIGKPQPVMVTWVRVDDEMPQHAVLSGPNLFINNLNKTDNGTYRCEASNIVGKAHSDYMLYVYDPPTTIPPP
Solution: MET

Exercise: hey, is glycan array binding signal (z-score) for this one >= 0.2? SP16663B-bot-321-25-321 (Bacteroides ovatus) (protein) DDDDEVTMNSKFYLSTKVFPVDSYEASLSVILKDNSVVVNELQPNYRFVACATERLSKDVKITADSDDNLVSAYNKANDTEYNILPAENYSFTNKTVTIENGESVSGDSIKIELLNVGSLTTEGGYLLPVTISSIEGNNLDALSSNRGVVYLKIQNIHVNVESGQPAEGTLIADRSGWTVKVAPTTRGDAKNLIDGTNSDVARDGGAEYWLTVDIGKVQTLTGIRNKCYASSYSPTAVEVFTSSDGAKWKSIGAVTISKSGTQYIKFSKAVETRYLKYYVKQGPNTVSLTEFDLYAK
Solution: NOT MET

Exercise: In plain terms: is recorded glycan array binding signal (z-score) at least 0.2 for MLTim-4 (Mus musculus), Q6U7R4 (protein) MSKGLLLLWLVTELWWLYLTPAASEDTIIGFLGQPVTLPCHYLSWSQSRNSMCWGKGSCPNSKCNAELLRTDGTRIISRKSTKYTLLGKVQFGEVSLTISNTNRGDSGVYCCRIEVPGWFNDVKKNVRLELRRAT ?
Solution: NOT MET
